- TESTED_ON: human NaP2b (SLC34A2) (Homo sapiens)
- Construct: host or cells: HEK293
- Sequence (O95436 1-690): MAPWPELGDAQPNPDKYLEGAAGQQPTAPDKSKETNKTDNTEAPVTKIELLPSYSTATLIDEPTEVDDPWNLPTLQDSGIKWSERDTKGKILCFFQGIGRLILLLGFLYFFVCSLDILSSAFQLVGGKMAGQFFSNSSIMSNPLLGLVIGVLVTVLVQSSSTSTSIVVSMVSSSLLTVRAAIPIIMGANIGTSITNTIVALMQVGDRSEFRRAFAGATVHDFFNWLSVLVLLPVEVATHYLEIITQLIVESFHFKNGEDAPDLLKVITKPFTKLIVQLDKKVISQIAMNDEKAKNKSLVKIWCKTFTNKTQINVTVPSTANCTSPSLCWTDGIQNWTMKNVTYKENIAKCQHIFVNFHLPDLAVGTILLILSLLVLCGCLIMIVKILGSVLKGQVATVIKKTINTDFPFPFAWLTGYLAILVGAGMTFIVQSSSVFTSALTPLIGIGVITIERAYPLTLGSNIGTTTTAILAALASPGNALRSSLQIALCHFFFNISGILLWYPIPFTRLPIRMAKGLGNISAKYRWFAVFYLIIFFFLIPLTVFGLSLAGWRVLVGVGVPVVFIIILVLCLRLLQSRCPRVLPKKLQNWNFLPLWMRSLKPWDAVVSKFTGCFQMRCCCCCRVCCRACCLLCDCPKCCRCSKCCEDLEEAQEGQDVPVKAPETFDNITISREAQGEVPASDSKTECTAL
- RUN_DESCRIPTION: Inhibition of NaP2b-mediated Pi (33P) uptake in transfected HEK293 cells, human NaP2b
- Format: cell-based
- CONDITION: read-out: pIC50 range for human NaP2b (converted)
- Method: HEK293 cells were obtained from the American Type Culture collection and propagated per their instructions. […] After incubation for 3-30 minutes at room temperature, assay mixtures were removed, and the cells were washed twice with ice cold stop solution (137 mM sodium chloride, 14 mM Tris, pH 7.4). Cells were lysed by addition of 20 μL 0.1% Tween 80 followed by 100 μL scintillation fluid, and counted using a TopCount (Perkin Elmer). […]
# IC50 values compiled below

Some solved cases for reference:
CCN(CC)c1ccc(NC(=O)c2cccc(CCCOCCOCCOCCOCCNS(=O)(=O)c3ccc(C(=O)N(CCOC)CCOCCOCCOCCOCCOCCOCCOC)cc3)c2)c(-c2cc(C(=O)NCc3cccc(C(F)(F)F)c3)ccn2)c1 : 1000 to 7940 nM
CN(CCN1CCOCC1)C(=O)c1cccc(C(=O)Nc2ccc(N3CCCCC3)cc2-c2cc(C(=O)N[C@@H]3CCCc4ccccc43)ccn2)c1 : 1000 to 7940 nM
CN(CCN1CCC(C(=O)OC(C)(C)C)CC1)C(=O)c1cccc(C(=O)Nc2ccc(N3CCCCC3)cc2-c2cc(C(=O)N[C@H]3CCCc4ccccc43)ccn2)c1 : 1000 to 7940 nM
COCCOCCOCCOCCOCCOCCOCCOCCOCc1cccc(C(=O)Nc2ccc(OC3CCC3)cc2-c2cc(C(=O)N[C@H]3CCCc4ccccc43)ccn2)c1 : < 1000 nM
CCN(CC)c1ccc(NC(=O)c2cccc(C(=O)N(C)CCN3CCC[C@H]3C(=O)NCCOCCOCCOCCOCCOCCOCCOCCOC)c2)c(-c2cc(C(=O)NCc3cccc(C(F)(F)F)c3)ccn2)c1 : 1000 to 7940 nM

Give its IC50 value. Item: O=C(O)CCOCCOCCOCCOCCCc1cccc(SCc2cccc(C(=O)Nc3ccc(N4CCCCC4)cc3-c3cc(C(=O)N[C@H]4CCCc5ccccc54)ccn3)c2)c1
1000 to 7940 nM

Thanks! And CCN(CC)c1ccc(NC(=O)c2cccc(C(=O)N(C)CCN(C)CCOCCOCCOCCNS(C)(=O)=O)c2)c(-c2cc(C(=O)N[C@H]3CCCc4ccccc43)ccn2)c1 ?
1000 to 7940 nM

---

- TESTED_ON: rat NaP2b (SLC34A2) (Rattus norvegicus)
- Construct: host or cells: HEK293
- Sequence (Q9JJ09 whole entry): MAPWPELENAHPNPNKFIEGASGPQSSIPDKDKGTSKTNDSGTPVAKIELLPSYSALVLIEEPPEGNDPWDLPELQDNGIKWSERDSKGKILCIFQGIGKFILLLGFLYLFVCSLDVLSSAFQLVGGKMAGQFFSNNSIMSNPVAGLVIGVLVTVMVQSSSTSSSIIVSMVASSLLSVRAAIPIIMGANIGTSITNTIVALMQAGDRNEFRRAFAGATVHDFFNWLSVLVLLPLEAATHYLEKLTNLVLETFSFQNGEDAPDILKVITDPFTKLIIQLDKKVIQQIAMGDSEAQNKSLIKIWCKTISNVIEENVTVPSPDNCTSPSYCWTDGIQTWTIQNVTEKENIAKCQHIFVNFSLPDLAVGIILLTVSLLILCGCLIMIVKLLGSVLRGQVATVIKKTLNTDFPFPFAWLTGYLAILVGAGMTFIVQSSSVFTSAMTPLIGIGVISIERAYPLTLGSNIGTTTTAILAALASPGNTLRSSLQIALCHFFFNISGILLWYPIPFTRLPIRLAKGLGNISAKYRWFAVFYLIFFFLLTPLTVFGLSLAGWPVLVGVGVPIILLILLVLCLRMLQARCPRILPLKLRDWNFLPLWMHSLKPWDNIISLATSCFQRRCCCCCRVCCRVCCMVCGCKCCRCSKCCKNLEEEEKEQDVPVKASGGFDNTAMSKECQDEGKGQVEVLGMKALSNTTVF
- RUN_DESCRIPTION: Inhibition of NaP2b-mediated Pi (33P) uptake in transfected HEK293 cells, rat NaP2b
- Type: cell-based
- CONDITION: 33P Pi uptake, 0.1 mM phosphate, value given as pIC50 range
pIC50: −log10 of the molar value.
# pIC50 values compiled below

O=C(O)Cc1cccc(SCc2cccc(C(=O)Nc3ccc(N4CCCCC4)cc3-c3cc(C(=O)NCc4cccc(C(F)(F)F)c4)ccn3)c2)c1 : > 6.00
CN(CCOCCOCCOCCC(=O)O)C(=O)c1cccc(C(=O)Nc2ccc(N3CCCCC3)cc2-c2cc(C(=O)N[C@H]3CCCc4ccccc43)ccn2)c1 : 5.10 to 6.00
CN(Cc1cccc(C(=O)Nc2ccc(N3CCCCC3)cc2-c2cc(C(=O)NCc3cccc(C(F)(F)F)c3)ccn2)c1)C(=O)CN1CCOCC1 : 4.50 to 5.00
CCN(CC)c1ccc(NC(=O)c2cccc(CCCOCCOCCOCCOCCOCCOCCOCCOCCOC)c2)c(-c2cc(C(=O)N[C@H]3CCCc4ccccc43)ccn2)c1 : > 6.00
CN(CCN1CCC(C(=O)OC(C)(C)C)CC1)C(=O)c1cccc(C(=O)Nc2ccc(N3CCCCC3)cc2-c2cc(C(=O)N[C@H]3CCCc4ccccc43)ccn2)c1 : 5.10 to 6.00
C[C@H]1CCCCN1c1ccc(NC(=O)c2cccc(C(=O)N(C)CCN3CCOCC3)c2)c(-c2cc(C(=O)NCc3cccc(C(F)(F)F)c3)ccn2)c1 : 5.10 to 6.00
CC(=O)N1CCCN(C(=O)c2cccc(C(=O)Nc3ccc(N4CCCCC4)cc3-c3cc(C(=O)NCc4cccc(C(F)(F)F)c4)ccn3)c2)CC1 : 5.10 to 6.00

Give its pIC50 value. Item: CCN(CC)c1ccc(NC(=O)c2cccc(COCCOCCOCCOCCOCCOCCOC(=O)NCCN3CCOCC3)c2)c(-c2cc(C(=O)NCc3cccc(C(F)(F)F)c3)ccn2)c1
> 6.00

---

- RUN_DESCRIPTION: Determination of compound Cmax and AUC after oral gavage (plasma LC-MS/MS)
- Type: in vivo, Sprague-Dawley rats
- CONDITION: Sprague-Dawley, rat, plasma, po, Structure (I) examples, Table 15, plasma 0.5-4 h
VALUE_TYPE: Cmax

Some solved cases for reference:
CCN(CC)c1ccc(NC(=O)c2cccc(CCCOCCOCCOCCOCCC(=O)N3CCN(C(=O)c4cccc(CCCOCCOCCOCCOCCOCCOCCOCCOCCOC)c4)CC3)c2)c(-c2cc(C(=O)NCc3cccc(C(F)(F)F)c3)ccn2)c1 : < 10 ng/mL
CCN(CC)c1ccc(NC(=O)c2cccc(CCCOCCOCCOCCOCCOCCOCCC(=O)O)c2)c(-c2cc(C(=O)NCc3cccc(C(F)(F)F)c3)ccn2)c1 : < 30 ng/mL
CCN(CC)c1ccc(NC(=O)c2cccc(CSCCOCCOCCOCCOCCOCCOCCOCCOCCC(=O)O)c2)c(-c2cc(C(=O)NCc3cccc(C(F)(F)F)c3)ccn2)c1 : > 50 ng/mL
CCN(CC)c1ccc(NC(=O)c2cccc(CCCOCCOCCOCCOCCOCCOCCOCCOCCOCCC(=O)O)c2)c(-c2cc(C(=O)NCc3cccc(C(F)(F)F)c3)ccn2)c1 : < 30 ng/mL

Read the next record carefully.
Give its Cmax value. Item: O=C(O)CCOCCOCCOCCOCCCc1cccc(C(=O)Nc2ccc(Cl)cc2-c2cc(C(=O)N[C@H]3CCCc4ccccc43)ccn2)c1
< 10 ng/mL

---

- RUN_DESCRIPTION: Stability of compounds in simulated intestinal fluid (SIF)
- Format: in vitro ADME
- CONDITION: simulated intestinal fluid (3 mg/mL pancreatin), incubation time 6 hr, relative to t=0
VALUE_TYPE: % remaining, SIF

Some solved cases for reference:
CCN(CC)c1ccc(NC(=O)c2cccc(CSCCOCCOCCOCCOCCC(=O)NCCOCCOCCOCCOCCOCCOCCOCCOC)c2)c(-c2cc(C(=O)NCc3cccc(C(F)(F)F)c3)ccn2)c1 [Example 165] : >80%
CN(CCOCCOCCOCCC(=O)O)C(=O)Cc1cccc(SCc2cccc(C(=O)Nc3ccc(N4CCCCC4)cc3-c3cc(C(=O)NCc4cccc(C(F)(F)F)c4)ccn3)c2)c1 [Example 138] : 40-60%
CCN(CC)c1ccc(NC(=O)c2cccc(CSCCOCCOCCOCCOCCOCCOCCOCCOC)c2)c(-c2cc(C(=O)NCc3cccc(C(F)(F)F)c3)ccn2)c1 [Example 265] : >80%
O=C(O)CCOCCOCCOCCOCCSCc1cccc(C(=O)Nc2ccc(N3CCCCC3)cc2-c2cc(C(=O)N[C@H]3CCCc4ccccc43)ccn2)c1 [Example 142] : >80%

Read the next record carefully.
Give its % remaining, SIF value. Item: COCCOCCOCCOCCOCCOCCOCCN(C)CCN(C)C(=O)c1cccc(C(=O)Nc2ccc(N3CCCCC3)cc2-c2cc(C(=O)N[C@H]3CCCc4ccccc43)ccn2)c1 [Example 333]
>80%
